- protocol_text: method code SF-RC, from DOI: 10.1002/ps.2780410303
- measurement_conditions: pH 2.8
readout_kind: logD
I'd appreciate a reply containing only the number, no unit.

q: Entry CCCCc1cnc(C2=NC(C)(C(C)C)C(=O)N2)c(C(=O)O)c1 (stereo unspecified) needs its logD filled in; supply it.
a: 1.99

====

- protocol_text: method code SF-RC, from DOI: 10.1016/s0968-0896(99)00108-x, PMID: 10530922
- measurement_conditions: pH 7.2
readout_kind: logD
I'd appreciate a reply containing only the number, no unit.

q: Entry CSc1ccc(COCCCc2c[nH]cn2)cc1 needs its logD filled in; supply it.
a: 1.88

====

- protocol_text: method code SF, from DOI: 10.1016/j.bmcl.2006.04.097, PMID: 16714112
# logP annotations

{"columns": ["smi", "logP"],
 "data": [
  ["Cc1cccc(C)c1C1=NCCO1", 2.21]
]}

q: Entry FC(F)(F)c1ccccc1C1=NCCO1 needs its logP filled in; supply it.
a: 2.15

q: Entry Ic1ccccc1C1=NCCO1 needs its logP filled in; supply it.
a: 2.3

====

# logP annotations
I'd appreciate a reply containing only the number, no unit.

Some solved cases for reference:
{"columns": ["molecule", "measured"],
 "data": [
  ["OCCCCCO", -0.43],
  ["CCC(C)(C)N", 0.9]
]}

q: Entry CC(C)CC(N)=O needs its logP filled in; supply it.
a: 0.19

q: Entry CC(O)CCO (stereo not given) needs its logP filled in; supply it.
a: -0.79

q: Entry CC(C)(O)C(C)(C)O needs its logP filled in; supply it.
a: -0.05

====

- protocol_text: method code SF-AS, from DOI: 10.1007/s001289900158, PMID: 8661463
readout_kind: logP
I'd appreciate a reply containing only the number, no unit.

Some solved cases for reference:
{"columns": ["smi", "logP"],
 "data": [
  ["NNc1nc(NN)nc(Nc2ccccc2)n1", 1.07],
  ["Clc1ccc(Cl)nn1", 0.93],
  ["O=[N+]([O-])c1ccc(Cl)nc1Cl", 1.96]
]}

Switching to the query record.
q: Entry O=[N+]([O-])c1c(Cl)ncnc1Cl needs its logP filled in; supply it.
a: 0.45

====

readout_kind: logP
I'd appreciate a reply containing only the number, no unit.

{"columns": ["smi", "readout_kind", "measured"],
 "data": [
  ["COc1ncnc2c1ncn2[C@@H]1O[C@H](CO)C[C@H]1F", "logP", 0.25]
]}

Switching to the query record.
q: Entry OC[C@@H]1C[C@@H](F)[C@H](n2cnc3c(Cl)ncnc32)O1 needs its logP filled in; supply it.
a: 0.32

====

readout_kind: logP

q: Entry C=CCn1nc(-c2sc(NC(=O)C(C)(C)C)nc2C)cc1C(=O)NCc1ccccc1 needs its logP filled in; supply it.
a: 4.33

====

# logP annotations
I'd appreciate a reply containing only the number, no unit.

{"columns": ["molecule", "logP"],
 "data": [
  ["CC12CCC(c3c1ssc3=S)C2(C)C (stereo not drawn)", 3.7],
  ["S=c1ssc(-c2ccccc2)c1-c1ccccc1", 4.2]
]}

q: Entry S=c1ssc2c1CCCCCCCCCCCCC2 needs its logP filled in; supply it.
a: 7.18

====

# logP annotations
I'd appreciate a reply containing only the number, no unit.

{"columns": ["smi", "readout_kind", "measured"],
 "data": [
  ["Clc1cc2oc3cc(Cl)c(Cl)c(Cl)c3c2cc1Cl", "logP", 6.7]
]}

Switching to the query record.
q: Entry Clc1cc2oc3c(Cl)c(Cl)c(Cl)cc3c2cc1Cl needs its logP filled in; supply it.
a: 6.31

====

readout_kind: logP
I'd appreciate a reply containing only the number, no unit.

{"columns": ["compound", "logP"],
 "data": [
  ["CCCCCC(=O)OC1CC(n2cc(C=CBr)c(=O)[nH]c2=O)OC1COP1(=O)OCc2cccc(C)c2O1 (centres undefined)", 2.6],
  ["Cc1cccc2c1OP(=O)(OCC1OC(n3cc(C=CBr)c(=O)[nH]c3=O)CC1OC(=O)C(C)(C)C)OC2 (centres undefined)", 3]
]}

q: Entry CCCCCCCCCC(=O)OC1CC(n2cc(C=CBr)c(=O)[nH]c2=O)OC1COP1(=O)OCc2cccc(C)c2O1 (centres undefined) needs its logP filled in; supply it.
a: 2.8

q: Entry CCC(=O)OC1CC(n2cc(C=CBr)c(=O)[nH]c2=O)OC1COP1(=O)OCc2cccc(C)c2O1 (centres undefined) needs its logP filled in; supply it.
a: 2.3

====

- measurement_conditions: pH 7.4
readout_kind: logD
I'd appreciate a reply containing only the number, no unit.

{"columns": ["compound", "logD"],
 "data": [
  ["CCCCC(OC(Cc1ccccc1)C(=O)N1CCC(OCOC)CC1)C(=O)NC(CC1CCCCC1)[C@@H](O)CC(C(=O)NCCCNC(C)=O)C(C)C (some centres not stated)", 4.3]
]}

Switching to the query record.
q: Entry CCCCC(OC(Cc1ccccc1)C(=O)N1CCC(OCOC)CC1)C(=O)NC(CC1CCCCC1)[C@@H](O)CC(C(=O)NCCCN/C(=N/C)NC#N)C(C)C (some centres not stated) needs its logD filled in; supply it.
a: 4.4

====

# logP annotations
I'd appreciate a reply containing only the number, no unit.

{"columns": ["smi", "measured"],
 "data": [
  ["ClC(Br)Br", 2.24]
]}

q: Entry ClC(Cl)Br needs its logP filled in; supply it.
a: 2.1

====

- protocol_text: method code SF-EPR, from DOI: 10.1007/bf01870789, PMID: 2549250
- measurement_conditions: pH 12.0
readout_kind: logD

q: Entry CN(C)C1CC(C)(C)N(O)C(C)(C)C1 needs its logD filled in; supply it.
a: 1.13

====

readout_kind: logP
I'd appreciate a reply containing only the number, no unit.

q: Entry O=C(Cn1ccnc1[N+](=O)[O-])NCC(F)(F)C(F)(F)F needs its logP filled in; supply it.
a: 0.76

====

# logP annotations
I'd appreciate a reply containing only the number, no unit.

{"columns": ["smi", "logP"],
 "data": [
  ["Nc1cc(Cl)ccc1Cl", 2.62]
]}

q: Entry Nc1cccc(Cl)c1Cl needs its logP filled in; supply it.
a: 2.51

====

readout_kind: logP
I'd appreciate a reply containing only the number, no unit.

q: Entry c1cncc(-c2cnn3cc(-c4ccc(OCCN5CCCCC5)cc4)cnc23)c1 needs its logP filled in; supply it.
a: 3.4

====

# logD annotations
- protocol_text: method code SF-AS, from DOI: 10.1016/0223-5234(94)90063-9
- measurement_conditions: pH 2.0
I'd appreciate a reply containing only the number, no unit.

Some solved cases for reference:
{"columns": ["smi", "readout_kind", "measured"],
 "data": [
  ["COc1ccc(C(=O)c2ncc(CC(=O)O)n2C)cc1", "logD", 0.11],
  ["Cn1c(CC(=O)O)cnc1C(=O)c1ccc(Cl)cc1", "logD", 1.17]
]}

Switching to the query record.
q: Entry Cn1c(CC(=O)O)cnc1C(=O)c1ccc([N+](=O)[O-])cc1 needs its logD filled in; supply it.
a: 0.86

====

readout_kind: logP
I'd appreciate a reply containing only the number, no unit.

q: Entry CCOc1ccccc1O needs its logP filled in; supply it.
a: 1.91

====

- protocol_text: method code SF-GLC, from DOI: 10.1016/0147-6513(82)90020-3, PMID: 7106034
readout_kind: logP
I'd appreciate a reply containing only the number, no unit.

q: Entry CCCCOCCOCCSC#N needs its logP filled in; supply it.
a: 1.68

====

- protocol_text: method code SF-AS, from Kosanovic, D.; Dumanovic, D.; Jovanovic, J. (1988). Solubility in octanol And the octanol-water partition coefficients of some 4(5)- and 5-nitroimidazoles. 53(10)559-563.
readout_kind: logP
I'd appreciate a reply containing only the number, no unit.

q: Entry Cc1ncc([N+](=O)[O-])n1C needs its logP filled in; supply it.
a: 0.31

====

# logP annotations
I'd appreciate a reply containing only the number, no unit.

Some solved cases for reference:
{"columns": ["smi", "logP"],
 "data": [
  ["CCCOc1ccc(C(=O)C2c3cccc(O)c3C(=O)c3c(O)cccc32)cc1", 3.44],
  ["COc1ccc(C(=O)C2c3cccc(O)c3C(=O)c3c(O)cccc32)cc1OC", 3.45]
]}

Switching to the query record.
q: Entry COc1ccc(C(=O)C2c3cccc(O)c3C(=O)c3c(O)cccc32)cc1 needs its logP filled in; supply it.
a: 3.74

====

readout_kind: logP
I'd appreciate a reply containing only the number, no unit.

q: Entry Cc1cnc2n(c1=O)CCCC2C (stereo unspecified) needs its logP filled in; supply it.
a: 0.69

====

# logP annotations
- protocol_text: method code SF-HPLC, from DOI: 10.1016/j.ejpb.2012.12.004, PMID: 23262162
I'd appreciate a reply containing only the number, no unit.

{"columns": ["compound", "measured"],
 "data": [
  ["Cc1c(C)c2c(c(C)c1O)CCC(C)(C(=O)O)O2 (configuration not stated)", 2.61]
]}

Switching to the query record.
q: Entry Oc1ccc(/C=C/c2cc(O)cc(O)c2)cc1 needs its logP filled in; supply it.
a: 2.56
